- Tested on: MALME-3M melanoma
- test_name: NCI-60 one-dose screen, 48 h (100 = growth as untreated, 0 = no growth, -100 = all killed)
- condition_description: 10 µM unless noted
This is part of a sample that, as a whole, favours compounds with a hit. Of some 83,000 tested, about 20% had one in any assay.
Under this convention, 1 denotes growth strictly below 80% and -1 denotes growth at or above 80%.

Consider `O=c1oc2c([nH]c3ccc4ccccc4c32)c2ccccc12` . Does its growth lie strictly below 80%?
-1

* * *

- System: PC-3 prostate
- test_name: NCI-60 one-dose screen, 48 h (100 = growth as untreated, 0 = no growth, -100 = all killed)
- condition_description: 10 µM unless noted
Compounds without any hit were thinned out: in the full panel of roughly 83,000, 20% have a hit.
Quick rule for you: growth at 50% or higher means Met, lower means Not met.

Below, 3 molecules whose answers are already recorded.
• Cc1cnc(NC(=O)C(Cc2ccccc2)NC(=O)c2ccccc2)s1 (stereo not drawn) = Met
• Cc1ccc(-c2csc3nc(C)c(CCCl)c(=O)n23)cc1 = Met
• CCC1CCc2nc3sc(C(=O)Nc4ccccc4F)c(N)c3cc2C1 (stereo not drawn) = Met

Reported growth at or above 50%? `CN(C)c1ccc(/C=C\N=Nc2ccc(Br)cc2)cc1`
Met

Reported growth at or above 50%? CCCCn1c(=O)c(C2CNC(=O)c3ccccc3N2)cc2ccccc21 (stereo not drawn)
Met

Reported growth at or above 50%? `COc1cc(OC)c(C(=O)/C=C/c2cccc(C(F)(F)F)c2)c(OC)c1`
Not met

Reported growth at or above 50%? CCN1C(=S)N(CC)C2Nn3c(s/c(=C4\C(=O)N(C)c5ccccc54)c3=O)=NC21 (stereo not drawn)
Not met

Reported growth at or above 50%? Nc1c(C(=O)Nc2cccc(C(F)(F)F)c2)sc2nc3c(cc12)C(O)CCC3 (stereo not drawn)
Not met

Reported growth at or above 50%? `COc1ccc(/C=C/c2nc(N3CCOCC3)c3nc(Cl)c(Cl)cc3n2)cc1OC`
Met

Reported growth at or above 50%? `Nc1c(C(=O)Nc2cccc(C(F)(F)F)c2)sc2nc3c(cc12)CCCCC3`
Met

Reported growth at or above 50%? `Nc1c(C(=O)Nc2cccc(Cl)c2Cl)sc2nc3c(cc12)C(=O)CCC3`
Met

Reported growth at or above 50%? `ClC1=C(Cl)C(Cl)=C(Cl)C1=Cc1ccc(Cl)cc1Cl`
Not met

Reported growth at or above 50%? `CCCCNc1nnc(-c2cc(-c3cc4ccccc4o3)nn2-c2ccccc2)o1`
Met

Reported growth at or above 50%? `COc1cc(CCn2nnc3c(Nc4ccc(N5CCOCC5)cc4)ncnc32)cc(OC)c1`
Met

Reported growth at or above 50%? `COc1ccc(/C=C/C(=O)c2ccc(B(O)O)cc2)cc1O`
Met

Reported growth at or above 50%? CCC(C)NCC(=O)O (stereo not drawn)
Met
